Compiled record: IC50 values for Cytochrome P450 2C9 (Homo sapiens, UniProt P11712) across several sources.

INPUT: Provide IC50 value for the following compound: CN(C)C(=O)c1cc(C(=O)Nc2cc3n(n2)CCN3c2ccc3c(c2)CCN(C)C3=O)cs1
OUTPUT: > 20 µM

INPUT: Provide IC50 value for the following compound: O=C(c1cc(Cl)c(O)c(Cl)c1)N1CCOc2ccc(CO)cc21
OUTPUT: > 50 µM

INPUT: Provide IC50 value for the following compound: CCOc1ccc(Nc2ccc(Cc3c[nH]c4ncnc(OC)c34)c(F)n2)cn1
OUTPUT: > 10 µM

INPUT: Provide IC50 value for the following compound: CC(=O)N1CCC(c2cc(OC3CC3)c(Nc3ncc(Cl)c(Nc4cn(C)nc4S(=O)(=O)C(C)C)n3)cc2C)CC1
OUTPUT: > 10 µM

INPUT: Provide IC50 value for the following compound: CS(=O)(=O)CC(=O)Nc1c(CCC2CC2)nn2c1C(=O)N[C@@]1(CCc3cc(OCC(F)(F)F)ccc31)C2
OUTPUT: > 20 µM

INPUT: Provide IC50 value for the following compound: CC[C@@H](C#N)NC(=O)c1ccc(-c2nc(Nc3cnn(C4CCN(C)CC4)c3)ncc2Cl)cc1
OUTPUT: 45.3 µM

INPUT: Provide IC50 value for the following compound: CC1(C)OC(N)=N[C@](C)(c2cc(NC(=O)c3ncc(C(F)(F)F)cc3Cl)ccc2F)C1(F)F
OUTPUT: 1 to 10 µM

INPUT: Provide IC50 value for the following compound: CCC(=O)N[C@H]1CCOc2c(-c3ccc4c(c3)CCC(=O)N4C)cncc21 (single isomer, unassigned)
OUTPUT: > 50 µM

INPUT: Provide IC50 value for the following compound: CC(C)c1cccc2c1OC(C(C)C)CN2C(=O)/C=C\C(=O)O (stereo not drawn)
OUTPUT: > 50 µM

INPUT: Provide IC50 value for the following compound: O=C(c1cc(Cl)c(O)c(Cl)c1)N1CCS(=O)(=O)c2ccccc21
OUTPUT: > 50 µM

INPUT: Provide IC50 value for the following compound: C[C@H](c1ccc(F)cc1)n1cncc1CN1CCN(S(=O)(=O)c2cnc(N3CCN4C[C@H](O)C[C@@H]4C3)s2)CC1
OUTPUT: 1.94 µM

INPUT: Provide IC50 value for the following compound: C[C@H](c1ccc(F)cc1)n1cncc1CN1CCN(S(=O)(=O)c2cnc(N3CCN(C)CC3)s2)CC1
OUTPUT: 3.22 µM

INPUT: Provide IC50 value for the following compound: CNc1ncnc2[nH]cc(C(=O)c3cnc(NC4CCC(F)(F)CC4)c(F)c3)c12
OUTPUT: > 10 µM

INPUT: Provide IC50 value for the following compound: O=C(OCOC(=O)[C@H]1CCCN1C(=O)CCCCC(=O)N1CCC[C@@H]1C(=O)O)C1CCOCC1
OUTPUT: > 33 µM

INPUT: Provide IC50 value for the following compound: CCOc1ncnc2[nH]cc(C(=O)c3ccc(Nc4ccc(OC)nc4)nc3F)c12
OUTPUT: > 10 µM

###

Compiled record: IC50 values for UniProt:P11712 across several sources.

INPUT: GET IC50 where system = UniProt:P11712 and item = CC(C)c1ccccc1[C@H](C)n1cncc1C(=O)N1CCC2NCCO[C@@H]2C1 (some centres unmarked)
OUTPUT: > 10 µM

INPUT: GET IC50 where system = UniProt:P11712 and item = C[C@H](c1ccc(F)cc1)n1cncc1CN1CCN(S(=O)(=O)c2cnc(N3CCN4C(=O)OC[C@H]4C3)s2)CC1
OUTPUT: 4.27 µM

INPUT: GET IC50 where system = UniProt:P11712 and item = CC[C@H](C)[C@H]1Oc2c(C)cc(C)cc2N(CCC(=O)O)C1=O
OUTPUT: > 50 µM

INPUT: GET IC50 where system = UniProt:P11712 and item = Cc1cnc2[nH]cc(Cc3cnc(Nc4ccc(C(F)(F)F)nc4)nc3)c2c1
OUTPUT: > 10 µM

INPUT: GET IC50 where system = UniProt:P11712 and item = CO[C@H]1[C@@H](CF)OC(N)=N[C@]1(C)c1cc(NC(=O)c2ccc(Cl)cn2)ccc1F
OUTPUT: ≥ 20 µM

INPUT: GET IC50 where system = UniProt:P11712 and item = CC(=O)N1CCC(n2cc(Nc3ncc(C)c(-c4ccc(C(=O)NCC#N)cc4)n3)cn2)CC1
OUTPUT: > 50 µM

INPUT: GET IC50 where system = UniProt:P11712 and item = Nc1ccc2c(c1)CCN2C(=O)c1cc(Cl)c(O)c(Cl)c1
OUTPUT: 18 µM

INPUT: GET IC50 where system = UniProt:P11712 and item = Cc1nn(C)c2c1O[C@H](C)CN2C(=O)c1cc(Br)c(O)c(Br)c1
OUTPUT: 16 µM

###

Compiled record: IC50 values for Cytochrome P450 2C9 (Homo sapiens, UniProt P11712) across several sources.

INPUT: GET IC50 where system = Cytochrome P450 2C9 (Homo sapiens, UniProt P11712) and item = CCc1ccc(Nc2ccc(C(=O)c3c[nH]c4ncnc(N)c34)c(F)n2)cn1
OUTPUT: > 10 µM

INPUT: GET IC50 where system = Cytochrome P450 2C9 (Homo sapiens, UniProt P11712) and item = Cc1cnc(Nc2cnn(C3CCN(CC#N)CC3)c2)nc1-c1ccc(C(=O)NCC#N)cc1
OUTPUT: > 50 µM

INPUT: GET IC50 where system = Cytochrome P450 2C9 (Homo sapiens, UniProt P11712) and item = C[C@H](c1ccc(F)cc1)n1cncc1CN1CCN(S(=O)(=O)c2cnc(N3CCN4CCC(O)[C@H]4C3)s2)CC1 (some centres unmarked)
OUTPUT: 1.77 µM

INPUT: GET IC50 where system = Cytochrome P450 2C9 (Homo sapiens, UniProt P11712) and item = C[C@@H](C#N)NC(=O)c1ccc(-c2nc(Nc3cnn(C4CCN(C)CC4)c3)ncc2Cl)cc1
OUTPUT: > 50 µM

INPUT: GET IC50 where system = Cytochrome P450 2C9 (Homo sapiens, UniProt P11712) and item = C[C@H](c1ccc(F)cc1)n1cncc1CC1(C#N)CCN(S(=O)(=O)c2cnc(N3CCN(C)CC3)s2)CC1
OUTPUT: > 10 µM

INPUT: GET IC50 where system = Cytochrome P450 2C9 (Homo sapiens, UniProt P11712) and item = C[C@@H](c1ccccc1-c1ccc(F)cc1)n1cncc1C(=O)N1CCC2NC(=O)CO[C@@H]2C1 (mixture of isomers)
OUTPUT: > 10 µM

INPUT: GET IC50 where system = Cytochrome P450 2C9 (Homo sapiens, UniProt P11712) and item = COc1nc(OC)nc(N2CCc3nc(NC(C)=O)sc3C2)n1
OUTPUT: > 20 µM

INPUT: GET IC50 where system = Cytochrome P450 2C9 (Homo sapiens, UniProt P11712) and item = Cl.Cn1nc(-c2ccc(OC/C(=C/F)CN)cc2)nc1C(F)F
OUTPUT: 24 µM

###

Compiled record: pIC50 values for UniProt:P11712 across several sources.
pIC50: −log10 of the molar value.

INPUT: GET pIC50 where system = UniProt:P11712 and item = CCN1CCC(Nc2ncnc3[nH]cc(C(=O)c4ccc(Nc5ccc(OC)nc5)nc4F)c23)CC1
OUTPUT: < 5.00

INPUT: GET pIC50 where system = UniProt:P11712 and item = NC(=O)c1cc(COC2=NN=C(Nc3ccc(Cl)cc3)C3C=COC23)ccn1 (stereo not shown)
OUTPUT: < 4.70

INPUT: GET pIC50 where system = UniProt:P11712 and item = CO[C@@H]1CN(C2CCN(C(=O)c3cncn3[C@@H](C)c3ccccc3-c3ccc(F)cc3)CC2)C[C@H]1O
OUTPUT: < 5.00

INPUT: GET pIC50 where system = UniProt:P11712 and item = COc1cc2c(NC3CCOCC3)nc(N3CCS(=O)(=O)CC3)nc2cc1OCCCN1CCCC1
OUTPUT: < 4.00

INPUT: GET pIC50 where system = UniProt:P11712 and item = COCCOc1ncnc2[nH]cc(Cc3ccc(Nc4ccc(OC)nc4)nc3F)c12
OUTPUT: < 5.00

INPUT: GET pIC50 where system = UniProt:P11712 and item = COc1cccc(-c2ccc3nc(NC(=O)NCc4cc(=O)[nH]o4)cn3n2)c1
OUTPUT: < 4.70

INPUT: GET pIC50 where system = UniProt:P11712 and item = Cc1ccc(Nc2ccc(C(=O)c3c[nH]c4ncnc(NCC5CC5)c34)c(F)n2)cn1
OUTPUT: < 5.00

INPUT: GET pIC50 where system = UniProt:P11712 and item = C[C@@H](c1ccccc1-c1ccc(F)cc1)n1cncc1C(=O)N1CCC[C@@H]2OCCN[C@H]2C1
OUTPUT: < 5.00

INPUT: GET pIC50 where system = UniProt:P11712 and item = COCCN1C[C@@H](n2ccc(F)c2)[C@H](NC(=O)Nc2c(C)c(-c3cnc(C4(F)COC4)nc3)nn2-c2ccccc2)C1
OUTPUT: 4.36

INPUT: GET pIC50 where system = UniProt:P11712 and item = CCn1nc2ncc(N3CC4(CN(C(=O)C5CCOCC5)C4)C3)cc2c1N(C)c1nc(-c2ccc(F)cc2)c(C#N)s1
OUTPUT: 4.80

INPUT: GET pIC50 where system = UniProt:P11712 and item = C[C@]1(c2cc(NC(=O)c3ccc(C#N)cn3)ccc2F)N=C(N)OCC12CC(F)(F)C2
OUTPUT: ≤ 4.70

INPUT: GET pIC50 where system = UniProt:P11712 and item = COc1cc2c(NC3CCOCC3)nc(N3CCC(F)(F)CC3)nc2cc1OCCCN1CCCC1
OUTPUT: < 4.00

INPUT: GET pIC50 where system = UniProt:P11712 and item = C[C@@H](c1ccccc1-c1ccc(F)cc1)n1cncc1C(=O)N1CCC(N2CC[C@@H](O)[C@H](F)C2)CC1
OUTPUT: < 5.00

INPUT: GET pIC50 where system = UniProt:P11712 and item = C[C@@H](c1ccccc1-c1cc(F)cc(F)c1)n1cncc1C(=O)N1CCC2NCCO[C@@H]2C1 (stereo partly shown)
OUTPUT: < 5.00

INPUT: GET pIC50 where system = UniProt:P11712 and item = C[C@@H](c1ccccc1-c1ccc(F)cc1)n1cncc1C(=O)N1CC[C@@H](N2CCC(O)CC2)[C@@H](F)C1
OUTPUT: < 5.00

INPUT: GET pIC50 where system = UniProt:P11712 and item = COc1cc(C(=O)N2CCOc3ccccc32)cc(Cl)c1O
OUTPUT: < 4.30

INPUT: GET pIC50 where system = UniProt:P11712 and item = Cc1ncccc1Oc1cc(=O)n(C)c(Nc2ccc(I)cc2F)c1C(N)=O
OUTPUT: < 5.00

INPUT: GET pIC50 where system = UniProt:P11712 and item = COc1cc2c(NC3CCOCC3)nc(N3CCCC3)nc2cc1OCCCN1CCCC1
OUTPUT: < 4.00

INPUT: GET pIC50 where system = UniProt:P11712 and item = CC(C)C[C@H]1NC(=O)[C@@H](C)N(C)C(=O)[C@H](C2CC2)NC[C@@H](C)Oc2ccccc2CC[C@H](C)NC1=O
OUTPUT: < 4.00

INPUT: GET pIC50 where system = UniProt:P11712 and item = O=C(Nc1ccccc1O)c1ccc(Oc2cccc(C(=O)Nc3ccccc3O)c2)cc1
OUTPUT: < 4.30

INPUT: GET pIC50 where system = UniProt:P11712 and item = Nc1ccc2c(c1)N(C(=O)c1cc(Cl)c(O)c(Cl)c1)CCO2
OUTPUT: 4.57

INPUT: GET pIC50 where system = UniProt:P11712 and item = O=C(O)c1cccc(C(=O)N2CCOc3ccccc32)c1
OUTPUT: < 4.30

INPUT: GET pIC50 where system = UniProt:P11712 and item = CNC(=O)c1cc(COC2=NN=C(Nc3ccc(Cl)cc3)C3C=COC23)ccn1 (stereo not shown)
OUTPUT: < 4.70

INPUT: GET pIC50 where system = UniProt:P11712 and item = Oc1cccc(-c2ccc(-c3cccc(O)c3)cc2)c1
OUTPUT: 5.71

INPUT: GET pIC50 where system = UniProt:P11712 and item = CS(=O)(=O)CC(=O)Nc1c(-c2ccc(F)c(F)c2)nn2c1C(=O)N[C@@]1(CCc3cc(F)cc(F)c31)C2
OUTPUT: < 4.70

INPUT: GET pIC50 where system = UniProt:P11712 and item = Cc1cc2c(cc1C#Cc1ncccc1S(=O)(=O)Nc1onc(C)c1Cl)C(C)(C)OC2
OUTPUT: 5.00 to 6.00

INPUT: GET pIC50 where system = UniProt:P11712 and item = C[C@H](c1ccc(F)cc1)n1cncc1CN1CCN(S(=O)(=O)c2cnc(N3CC[C@@H]4OCCN[C@H]4C3)s2)CC1
OUTPUT: 5.13

INPUT: GET pIC50 where system = UniProt:P11712 and item = Cc1ccc(Nc2ccc(C(=O)c3c[nH]c4ncnc(NCC(F)(F)F)c34)c(F)n2)cn1
OUTPUT: > 5.30

INPUT: GET pIC50 where system = UniProt:P11712 and item = O=C(c1ccc(NC2CCC(F)(F)CC2)nc1Cl)c1c[nH]c2ncnc(NCC(F)(F)F)c12
OUTPUT: < 5.00

INPUT: GET pIC50 where system = UniProt:P11712 and item = COCCNS(=O)(=O)Nc1ncnc(OCCOc2ncc(Br)cn2)c1-c1ccc2c(c1)OCO2
OUTPUT: < 4.30

INPUT: GET pIC50 where system = UniProt:P11712 and item = COc1ccc(Nc2ccc(C(=O)c3c[nH]c4ncnc(NC(C)(C)C)c34)c(F)n2)cn1
OUTPUT: < 5.00
